Recorded measurements of Cmax, one per entry
# test.summary: Single oral dose human plasma pharmacokinetics of D, DA and DOH after Cogni.Q
# Assay type: in vivo
# cond: human, plasma, oral, subject S16 (175 lb); read-out: Cmax
# unit: nM | format: bare number

See these solved cases before continuing.
[
  {
    "compound": "C/C=C(/C)C(=O)O[C@H]1Cc2cc3ccc(=O)oc3cc2OC1(C)C [DA, decursinol angelate]",
    "Cmax (nM)": 4.3
  },
  {
    "compound": "CC(C)=CC(=O)O[C@H]1Cc2cc3ccc(=O)oc3cc2OC1(C)C",
    "Cmax (nM)": 2.8
  }
]

Alright, here's another compound for you.
So for CC1(C)Oc2cc3oc(=O)ccc3cc2C[C@@H]1O , the logged Cmax turned out to be 1800

* * *

# test.summary: Single oral dose human plasma pharmacokinetics of D, DA and DOH after Cogni.Q
# Format: in vivo
# cond: both sexes, human, plasma, po, all human subjects n = 20; single oral dose 4 Cogni.Q vegicaps (119 mg D, 77 mg DA); plasma; read-out: Tmax, h, Mean (SD)
# Experimental: Ten healthy male and 10 female subjects were recruited by public announcement in Amarillo, TX, from January 2013 to April 2013 (see Fig. 1 CONSORT diagram). […] Plasma was prepared by centrifuging the heparinized blood at 1000 g for 15 minutes at room temperature. Urine samples (40mL) were collected within time spans of 0–4, 4–8, 8–12 and 12–24 hours (total volume of urine was recorded). […]
attribute.measured: Tmax (h)
# unit: h | format: bare number

So for C/C=C(/C)C(=O)O[C@H]1Cc2cc3ccc(=O)oc3cc2OC1(C)C [DA, decursinol angelate] , the logged Tmax turned out to be 2.4

* * *

# test.summary: Single oral dose human plasma pharmacokinetics of D, DA and DOH after Cogni.Q
# Type: in vivo
# cond: human, plasma, oral, 4 Cogni.Q vegicaps, subject S2 (194 lb); read-out: Cmax
attribute.measured: Cmax (nM)
# unit: nM | format: bare number

[
  {
    "compound": "CC1(C)Oc2cc3oc(=O)ccc3cc2C[C@@H]1O",
    "measurement.unit": "nM",
    "Cmax": 2390
  },
  {
    "compound": "C/C=C(/C)C(=O)O[C@H]1Cc2cc3ccc(=O)oc3cc2OC1(C)C [DA, decursinol angelate]",
    "measurement.unit": "nM",
    "Cmax": 13.4
  }
]

Alright, here's another compound for you.
So for CC(C)=CC(=O)O[C@H]1Cc2cc3ccc(=O)oc3cc2OC1(C)C , the logged Cmax turned out to be 2

* * *

# test.summary: Single oral dose human plasma pharmacokinetics of D, DA and DOH after Cogni.Q
# Assay type: in vivo
# cond: human, plasma, oral, 4 Cogni.Q vegicaps, subject S4 (170 lb); read-out: Tmax
attribute.measured: Tmax (h)
# unit: h | format: bare number

See these solved cases before continuing.
[
  {
    "compound": "C/C=C(/C)C(=O)O[C@H]1Cc2cc3ccc(=O)oc3cc2OC1(C)C [DA, decursinol angelate]",
    "measurement.unit": "h",
    "Tmax": 2
  },
  {
    "compound": "CC(C)=CC(=O)O[C@H]1Cc2cc3ccc(=O)oc3cc2OC1(C)C",
    "measurement.unit": "h",
    "Tmax": 2
  }
]

Alright, here's another compound for you.
So for CC1(C)Oc2cc3oc(=O)ccc3cc2C[C@@H]1O , the logged Tmax turned out to be 6

* * *

# test.summary: Single oral dose human plasma pharmacokinetics of D, DA and DOH after Cogni.Q
# Type: in vivo
# cond: human, plasma, oral, 4 Cogni.Q vegicaps, subject S14 (200 lb); read-out: Tmax
attribute.measured: Tmax
Answer by giving the amount and then stating its unit.

See these solved cases before continuing.
[
  {
    "compound": "CC1(C)Oc2cc3oc(=O)ccc3cc2C[C@@H]1O",
    "data.value": "2 h"
  },
  {
    "compound": "C/C=C(/C)C(=O)O[C@H]1Cc2cc3ccc(=O)oc3cc2OC1(C)C [DA, decursinol angelate]",
    "data.value": "1 h"
  }
]

So for CC(C)=CC(=O)O[C@H]1Cc2cc3ccc(=O)oc3cc2OC1(C)C , the logged Tmax turned out to be 1 h

* * *

Recorded measurements of Tmax, one per entry
# test.summary: Single oral dose human plasma pharmacokinetics of D, DA and DOH after Cogni.Q
# Type: in vivo
# cond: human, plasma, oral, 4 Cogni.Q vegicaps, subject S7 (180 lb); read-out: Tmax
# unit: h | format: bare number

See these solved cases before continuing.
[
  {
    "compound": "CC1(C)Oc2cc3oc(=O)ccc3cc2C[C@@H]1O",
    "measurement.unit": "h",
    "data.value": 6
  },
  {
    "compound": "C/C=C(/C)C(=O)O[C@H]1Cc2cc3ccc(=O)oc3cc2OC1(C)C [DA, decursinol angelate]",
    "measurement.unit": "h",
    "data.value": 4
  }
]

Alright, here's another compound for you.
So for CC(C)=CC(=O)O[C@H]1Cc2cc3ccc(=O)oc3cc2OC1(C)C , the logged Tmax turned out to be 4

* * *

# test.summary: Single oral dose human plasma pharmacokinetics of D, DA and DOH after Cogni.Q
# Assay type: in vivo
# cond: human, plasma, oral, 4 Cogni.Q vegicaps, subject S17 (147 lb); read-out: Cmax
attribute.measured: Cmax (nM)
# unit: nM | format: bare number

See these solved cases before continuing.
[
  {
    "compound": "CC(C)=CC(=O)O[C@H]1Cc2cc3ccc(=O)oc3cc2OC1(C)C",
    "data.value": 9.8
  },
  {
    "compound": "CC1(C)Oc2cc3oc(=O)ccc3cc2C[C@@H]1O",
    "data.value": 3740
  }
]

Alright, here's another compound for you.
So for C/C=C(/C)C(=O)O[C@H]1Cc2cc3ccc(=O)oc3cc2OC1(C)C [DA, decursinol angelate] , the logged Cmax turned out to be 104

* * *

# test.summary: Single oral dose human plasma pharmacokinetics of D, DA and DOH after Cogni.Q
# Type: in vivo
# cond: human, plasma, oral, 4 Cogni.Q vegicaps, subject S7 (180 lb); read-out: AUC0-48h
attribute.measured: AUC(0-t)
Answer by giving the amount and then stating its unit.

So for CC1(C)Oc2cc3oc(=O)ccc3cc2C[C@@H]1O [DOH, decursinol] , the logged AUC(0-t) turned out to be 51.8 µM·h

So for C/C=C(/C)C(=O)O[C@H]1Cc2cc3ccc(=O)oc3cc2OC1(C)C [DA, decursinol angelate] , the logged AUC(0-t) turned out to be 0.432 µM·h

So for CC(C)=CC(=O)O[C@H]1Cc2cc3ccc(=O)oc3cc2OC1(C)C [D, decursin] , the logged AUC(0-t) turned out to be 0.0233 µM·h

* * *

Recorded measurements of AUC(0-t), one per entry
# test.summary: Single oral dose human plasma pharmacokinetics of D, DA and DOH after Cogni.Q
# Type: in vivo
# cond: human, plasma, oral, 4 Cogni.Q vegicaps, subject S2 (194 lb); read-out: AUC0-48h
Answer by giving the amount and then stating its unit.

So for CC(C)=CC(=O)O[C@H]1Cc2cc3ccc(=O)oc3cc2OC1(C)C , the logged AUC(0-t) turned out to be 0.0148 µM·h

So for CC1(C)Oc2cc3oc(=O)ccc3cc2C[C@@H]1O , the logged AUC(0-t) turned out to be 25 µM·h

So for C/C=C(/C)C(=O)O[C@H]1Cc2cc3ccc(=O)oc3cc2OC1(C)C [DA, decursinol angelate] , the logged AUC(0-t) turned out to be 0.0975 µM·h

* * *

Recorded measurements of Cmax, one per entry
# test.summary: Single oral dose human plasma pharmacokinetics of D, DA and DOH after Cogni.Q
# Assay type: in vivo
# cond: human, plasma, oral, 4 Cogni.Q vegicaps, subject S13 (192 lb); read-out: Cmax
# unit: nM | format: bare number

See these solved cases before continuing.
[
  {
    "compound": "C/C=C(/C)C(=O)O[C@H]1Cc2cc3ccc(=O)oc3cc2OC1(C)C [DA, decursinol angelate]",
    "Cmax / nM": 11.2
  },
  {
    "compound": "CC1(C)Oc2cc3oc(=O)ccc3cc2C[C@@H]1O",
    "Cmax / nM": 2420
  }
]

Alright, here's another compound for you.
So for CC(C)=CC(=O)O[C@H]1Cc2cc3ccc(=O)oc3cc2OC1(C)C , the logged Cmax turned out to be 1.3

* * *

# test.summary: Single oral dose human plasma pharmacokinetics of D, DA and DOH after Cogni.Q
# Format: in vivo
# cond: human, plasma, oral, subject S16 (175 lb); read-out: AUC0-48h
attribute.measured: AUC(0-t) (µM·h)
# unit: µM·h | format: bare number

[
  {
    "compound": "CC1(C)Oc2cc3oc(=O)ccc3cc2C[C@@H]1O [DOH, decursinol]",
    "data.value": 16.3
  },
  {
    "compound": "C/C=C(/C)C(=O)O[C@H]1Cc2cc3ccc(=O)oc3cc2OC1(C)C [DA, decursinol angelate]",
    "data.value": 0.0684
  }
]

Alright, here's another compound for you.
So for CC(C)=CC(=O)O[C@H]1Cc2cc3ccc(=O)oc3cc2OC1(C)C [D, decursin] , the logged AUC(0-t) turned out to be 0.0222
